Each recorded value in this set is attributed to patent US12116343B2.

- SYSTEM_NAME: APOL1 G1 Protein (Homo sapiens, UniProt O14791, I384M/S342G)
- Sequence (O14791 28-398 S342G/I384M): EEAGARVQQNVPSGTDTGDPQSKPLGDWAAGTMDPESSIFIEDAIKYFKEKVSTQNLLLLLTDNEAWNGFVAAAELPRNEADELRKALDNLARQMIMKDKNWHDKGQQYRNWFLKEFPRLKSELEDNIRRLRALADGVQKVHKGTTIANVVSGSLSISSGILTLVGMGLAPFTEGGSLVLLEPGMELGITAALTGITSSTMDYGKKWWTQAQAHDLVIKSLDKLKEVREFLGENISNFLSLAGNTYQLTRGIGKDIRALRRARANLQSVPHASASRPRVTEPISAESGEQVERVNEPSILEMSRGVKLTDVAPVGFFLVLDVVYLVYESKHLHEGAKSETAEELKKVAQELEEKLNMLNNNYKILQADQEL
- TEST_METHOD_NOTES: Trypanosoma brucei brucei lysis assay using APOL1 recombinant protein (AlamarBlue viability)
- Format: cell-based
- STUDY_CONDITIONS: Trypanosoma brucei brucei lysis, recombinant APOL1, AlamarBlue; read-out: Trypanosoma Assay (IC50)
Assign IC50 to each entry below.

Exam item: # query: IC50 of entry `O=C(N[C@@H]1CCC[C@H]1O)[C@H]1C[C@H](c2c(-c3ccc(F)cc3)[nH]c3c(F)cc(F)cc32)C1`
Marked response: > 1000 nM

Exam item: # query: IC50 of entry CC(O)C1CCCN(C(=O)[C@H]2C[C@H](c3c(-c4ccc(F)cc4)[nH]c4c(F)cc(F)cc43)C2)C1 (stereo partly drawn)
Marked response: > 1000 nM

Exam item: # query: IC50 of entry `O=C(NC[C@@H](O)CO)[C@H]1C[C@H](c2c(-c3ccc(F)cc3)[nH]c3c(F)cc(F)cc32)C1`
Marked response: > 1000 nM

Exam item: # query: IC50 of entry `NC(=O)[C@@H]1CCCN1C(=O)[C@H]1C[C@H](c2c(-c3ccc(F)cc3)[nH]c3c(F)cc(F)cc32)C1`
Marked response: > 1000 nM

Exam item: # query: IC50 of entry `O=C([C@H]1C[C@H](c2c(-c3ccc(F)cc3)[nH]c3c(F)cc(F)cc32)C1)N1CCC(O)(CO)CC1`
Marked response: > 1000 nM

Exam item: # query: IC50 of entry `Cn1ccc(NC(=O)[C@H]2C[C@H](c3c(-c4ccc(F)cc4)[nH]c4c(F)cc(F)cc43)C2)n1`
Marked response: 250 to 1000 nM

Exam item: # query: IC50 of entry `C[C@H]1CN(C(=O)[C@H]2C[C@H](c3c(-c4ccc(F)cc4)[nH]c4c(F)cc(F)cc43)C2)CC[C@@H]1O`
Marked response: > 1000 nM

Exam item: # query: IC50 of entry `O=C(NCC1(CO)COC1)[C@H]1C[C@H](c2c(-c3ccc(F)cc3)[nH]c3c(F)cc(F)cc32)C1`
Marked response: > 1000 nM

Exam item: # query: IC50 of entry CC(N)(C(=O)NC(=O)[C@H]1C[C@H](c2c(-c3ccc(F)cc3)[nH]c3c(F)cc(F)cc32)C1)C(F)(F)F (stereo partly drawn)
Marked response: 250 to 1000 nM

Exam item: # query: IC50 of entry `CC(C)(CO)NC(=O)[C@H]1C[C@H](c2c(-c3ccc(F)cc3)[nH]c3c(F)cc(F)cc32)C1`
Marked response: 250 to 1000 nM

Exam item: # query: IC50 of entry `Cc1ccn(CCNC(=O)[C@H]2C[C@H](c3c(-c4ccc(F)cc4)[nH]c4c(F)cc(F)cc43)C2)n1`
Marked response: 250 to 1000 nM

Exam item: # query: IC50 of entry `CC(C)(NC(=O)[C@H]1C[C@H](c2c(-c3ccc(F)cc3)[nH]c3c(F)cc(F)cc32)C1)C(N)=O`
Marked response: < 250 nM

Exam item: # query: IC50 of entry `O=C(NCC1CC(F)(F)C1)[C@H]1C[C@H](c2c(-c3ccc(F)cc3)[nH]c3c(F)cc(F)cc32)C1`
Marked response: > 1000 nM

Exam item: # query: IC50 of entry `O=C([C@H]1C[C@H](c2c(-c3ccc(F)cc3)[nH]c3c(F)cc(F)cc32)C1)N(CCO)CCCO`
Marked response: 250 to 1000 nM

Exam item: # query: IC50 of entry O=C(NC1CC(O)C1)[C@H]1C[C@H](c2c(-c3ccc(F)cc3)[nH]c3c(F)cc(F)cc32)C1 (stereo partly drawn)
Marked response: 250 to 1000 nM

Exam item: # query: IC50 of entry `C[C@@H](O)[C@@H](CO)NC(=O)[C@H]1C[C@H](c2c(-c3ccc(F)cc3)[nH]c3c(F)cc(F)cc32)C1`
Marked response: < 250 nM

Exam item: # query: IC50 of entry NC(=O)C(CO)NC(=O)[C@H]1C[C@H](c2c(-c3ccc(F)cc3)[nH]c3c(F)cc(F)cc32)C1 (stereo partly drawn)
Marked response: < 250 nM

Exam item: # query: IC50 of entry CC(C)CC(NC(=O)[C@H]1C[C@H](c2c(-c3ccc(F)cc3)[nH]c3c(F)cc(F)cc32)C1)C(N)=O (stereo partly drawn)
Marked response: > 1000 nM

Exam item: # query: IC50 of entry `O=C([C@H]1C[C@H](c2c(-c3ccc(F)cc3)[nH]c3c(F)cc(F)cc32)C1)N1CCC[C@H](O)C1`
Marked response: 250 to 1000 nM

Exam item: # query: IC50 of entry O=C(NCC(O)CO)[C@H]1C[C@H](c2c(-c3ccc(F)cc3)[nH]c3c(F)cc(F)cc32)C1 (stereo partly drawn)
Marked response: 250 to 1000 nM

Exam item: # query: IC50 of entry `O=C1NCC[C@@H]1NC(=O)[C@H]1C[C@H](c2c(-c3ccc(F)cc3)[nH]c3c(F)cc(F)cc32)C1`
Marked response: 250 to 1000 nM

Exam item: # query: IC50 of entry `O=C([C@H]1C[C@H](c2c(-c3ccc(F)cc3)[nH]c3c(F)cc(F)cc32)C1)N1CCC[C@@H](CO)C1`
Marked response: > 1000 nM

Exam item: # query: IC50 of entry `O=C([C@H]1C[C@H](c2c(-c3ccc(F)cc3)[nH]c3c(F)cc(F)cc32)C1)N1C[C@H]2C[C@@]2(CO)C1`
Marked response: > 1000 nM

Exam item: # query: IC50 of entry `O=C(N[C@H]1C[C@H](O)C1)[C@H]1C[C@H](c2c(-c3ccc(F)cc3)[nH]c3c(F)cc(F)cc32)C1`
Marked response: 250 to 1000 nM

Exam item: # query: IC50 of entry O=C([C@H]1C[C@H](c2c(-c3ccc(F)cc3)[nH]c3c(F)cc(F)cc32)C1)N1CCOC(CO)C1 (stereo partly drawn)
Marked response: > 1000 nM

Exam item: # query: IC50 of entry `O=C([C@H]1C[C@H](c2c(-c3ccc(F)cc3)[nH]c3c(F)cc(F)cc32)C1)N1CCC(CO)(CO)CC1`
Marked response: > 1000 nM

Exam item: # query: IC50 of entry `O=C1N[C@H](CO)C[C@@H]1NC(=O)[C@H]1C[C@H](c2c(-c3ccc(F)cc3)[nH]c3c(F)cc(F)cc32)C1`
Marked response: > 1000 nM
